Cited source: patent US10214546B2

- System: adenosine uptake into HeLa cells
- run-description: [3H]Adenosine uptake assay in HeLa cells
- Type: cell-based
- condition-set: Homo sapiens, HeLa, [3H]adenosine accumulation in HeLa cells; compound range 10 μM to 0.032 nM; read-out: ADU inhibition IC50
Give measured IC50 for each item. Keep answers brief.
Please provide the amount together with its unit, number first.

// sample Cc1cc([C@](C)(O)c2cccc(C(F)(F)F)c2)ccc1-c1nc([C@@H]2CC[C@H]3CCC(=O)N3C2)n2ccnc(N)c12 [Example 104] , its IC50 was 1.7 µM

For record C[C@](O)(c1ccc(-c2nc([C@@H]3CC[C@H]4CCC(=O)N4C3)n3ccnc(N)c23)cc1)c1cccc(C(F)F)c1 [Example 70] the listed IC50 is 1.01 µM

Short answer for CO[C@@](C)(c1ccc(-c2nc([C@@H]3CC[C@H]4CCC(=O)N4C3)n3ccnc(N)c23)cc1)c1cccc(C(F)(F)F)c1 [Example 90] : IC50 was 0.969 µM

So for C[C@](O)(c1ccc(-c2nc([C@@H]3CC[C@H]4CCC(=O)N4C3)n3ccnc(N)c23)cc1)c1cncc(C(F)(F)F)c1 [Example 135] , the logged IC50 turned out to be 0.973 µM

Entry under test: CC(O)(c1cccc(C(F)(F)F)c1)c1ccc(-c2nc([C@@H]3CC[C@H]4CCC(=O)N4C3)n3ccnc(N)c23)c(C(F)(F)F)c1 (stereo partly shown) [Example 105] . Its IC50 was 0.861 µM

Consider C[C@@](O)(c1ccc(-c2nc([C@@H]3CC[C@H]4CCC(=O)N4C3)n3ccnc(N)c23)cc1)c1cccc(N2CCOCC2)c1 [Example 66] . Its measured IC50 is 4.19 µM

Quick note, IC50 for CCOc1cc(C(C)(O)c2cccc(C(F)(F)F)c2)cc(F)c1-c1nc([C@@H]2CC[C@H]3CCC(=O)N3C2)n2ccnc(N)c12 (stereo partly shown) [Example 22] landed at 3.82 µM

# compound C[C@](O)(c1cccc(C(F)(F)F)c1)c1ccc(-c2nc([C@@H]3CC[C@H]4CCC(=O)N4C3)n3ccnc(N)c23)c(C(F)F)c1 [Example 81] ; its IC50 = 0.684 µM

The recorded IC50 for C[C@](O)(c1ccc(-c2nc([C@@H]3CC[C@H]4CCC(=O)N4C3)n3ccnc(N)c23)cc1)c1cccc(C2CCC2)c1 [Example 82] is 0.746 µM

In plain terms, CCOc1cc(C(C)(O)c2cccc(C(F)(F)F)c2)ccc1-c1nc([C@@H]2CC[C@H]3CCC(=O)N3C2)n2ccnc(N)c12 (stereo partly shown) [Example 162] has a documented IC50 of 4.21 µM

So for C[C@](O)(c1ccc(-c2nc([C@@H]3CC[C@H]4CCC(=O)N4C3)n3c(Cl)cnc(N)c23)cc1)c1cccc(C(F)F)c1 [Example 133] , the logged IC50 turned out to be 0.46 µM

Value of measured IC50 for the entry C[C@@](O)(c1ccc(-c2nc([C@@H]3CC[C@H]4C(C(F)(F)F)CC(=O)N4C3)n3ccnc(N)c23)cc1)c1cccc(C(F)F)c1 (stereo partly shown) [Example 182] : 2.8 µM

Just so you know, measured IC50 for Nc1nccn2c([C@@H]3CC[C@H]4CCC(=O)N4C3)nc(-c3ccc(C(O)(c4cccc(F)c4)C(F)(F)F)cc3)c12 (stereo partly shown) [Example 29] came out at 1.99 µM

---

Give IC50 for every item shown.
- study-target: BTK enzyme (recombinant full-length BTK, hBTK) (Homo sapiens (Human), UniProt Q06187)
- Sequence (Q06187 whole entry): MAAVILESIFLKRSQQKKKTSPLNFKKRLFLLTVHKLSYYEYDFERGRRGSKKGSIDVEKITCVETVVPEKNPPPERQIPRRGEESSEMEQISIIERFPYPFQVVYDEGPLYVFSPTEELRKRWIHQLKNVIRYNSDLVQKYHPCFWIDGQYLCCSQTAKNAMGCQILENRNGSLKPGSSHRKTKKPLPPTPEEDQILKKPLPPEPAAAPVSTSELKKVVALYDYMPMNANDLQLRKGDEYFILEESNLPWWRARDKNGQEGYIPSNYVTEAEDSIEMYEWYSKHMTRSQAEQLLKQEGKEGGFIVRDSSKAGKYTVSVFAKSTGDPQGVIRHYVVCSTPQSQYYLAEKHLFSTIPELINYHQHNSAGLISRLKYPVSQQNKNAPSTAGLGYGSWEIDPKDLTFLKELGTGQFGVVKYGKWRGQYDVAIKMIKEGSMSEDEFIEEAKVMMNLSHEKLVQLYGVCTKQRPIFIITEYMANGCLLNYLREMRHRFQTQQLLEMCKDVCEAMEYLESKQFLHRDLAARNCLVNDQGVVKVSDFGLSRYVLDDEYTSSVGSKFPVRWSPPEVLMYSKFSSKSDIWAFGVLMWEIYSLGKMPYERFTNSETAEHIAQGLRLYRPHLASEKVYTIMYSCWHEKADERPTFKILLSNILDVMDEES
- run-description: BTK enzymatic activity LANCE TR-FRET assay
- condition-set: 50 pM hBTK, 25 μM ATP, 2 μM biotin-A5-peptide; compound range 1 μM to 0.017 nM; read-out: BTK binding IC50
Unit nM implied. Number only.

The measured IC50 associated with CC1(C)C[C@@H]2CC[C@@H](c3nc(-c4ccc([C@@](C)(O)c5cccc(C(F)(F)F)c5)cc4)c4c(N)ncc(F)n34)CN2C1=O [Example 198] reads 7.1

Lab book: IC50 of Cc1cccc([C@@](C)(O)c2ccc(-c3nc([C@@H]4CC[C@H]5CCC(=O)N5C4)n4ccnc(N)c34)cc2)c1 [Example 53] noted as 6.5

compound CC(C)(C)c1cccc([C@@](C)(O)c2ccc(-c3nc([C@@H]4CC[C@H]5CCC(=O)N5C4)n4ccnc(N)c34)cc2)c1 [Example 39] , IC50 observed: 9.6

Per the records, this compound ( C[C@@](O)(c1ccc(-c2nc([C@@H]3CC[C@@H]4N(C3)C(=O)CC43CC3)n3ccnc(N)c23)cc1)c1cccc(C(F)(F)F)c1 [Example 188] ) has IC50 equal to 1.2

// IC50 lookup, compound = C[C@](O)(c1ccc(-c2nc([C@@H]3CC[C@H]4CCC(=O)N4C3)n3ccnc(N)c23)cc1)c1cccc(OC2CC2)c1 [Example 94] , result: 201

// recorded IC50 for C[C@@](O)(c1ccc(-c2nc([C@@H]3CC[C@H]4CCCN4C3)n3ccnc(N)c23)cc1)c1cccc(C(F)(F)F)c1 [Example 62] : 19.7

# IC50 of COc1cc(C(O)(c2cccc(C(F)(F)F)c2)C(F)(F)F)ccc1-c1nc([C@@H]2CC[C@H]3CCC(=O)N3C2)n2ccnc(N)c12 (single isomer, unassigned) [Example 11] = 1.8

The reported IC50 of the compound Nc1nccn2c([C@@H]3CC[C@H]4CCC(=O)N4C3)nc(-c3ccc([C@](O)(c4ccccc4)C(F)(F)F)cc3)c12 [Example 25] was 1.8

Documented IC50 of CC(O)(c1ccc(-c2nc([C@@H]3CC[C@H]4CCC(=O)N4C3)n3ccnc(N)c23)cc1)c1ccccn1 (stereo partly shown) [Example 17] : 324

// IC50 lookup, compound = C[C@](O)(c1ccc(-c2nc([C@@H]3CC[C@H]4CCC(=O)N4C3)n3ccnc(N)c23)cc1)c1cc(C(F)(F)F)ccn1 [Example 36] , result: 1000

IC50 for Cc1cc([C@](C)(O)c2cccc(C(F)(F)F)c2)ccc1-c1nc([C@@H]2CC[C@H]3CCC(=O)N3C2)n2ccnc(N)c12 [Example 104] is 10.7

Please fill in: IC50 reported for C[C@@](O)(c1ccc(-c2nc([C@@H]3CC[C@H]4CCC(=O)N4C3)n3c(Cl)cnc(N)c23)cc1)c1cccc(CC(F)(F)F)c1 [Example 121] = 0.18

Record summary for C[C@](O)(c1ccc(-c2nc([C@@H]3CC[C@H]4CCC(=O)N4C3)n3ccnc(N)c23)cc1)c1cccc(C#N)c1 [Example 84] : reported IC50 = 1000

---

- System: adenosine uptake into HeLa cells
- run-description: [3H]Adenosine uptake assay in HeLa cells
- Assay type: cell-based
- condition-set: Homo sapiens, HeLa, [3H]adenosine accumulation in HeLa cells; compound range 10 μM to 0.032 nM; read-out: ADU inhibition IC50
- Experimental: Compounds are also screened in an adenosine uptake functional cellular assay using the protocol described below: [^3H]Adenosine Uptake Assay Methods Adenosine uptake activity was determined by monitoring the accumulation of tritiated adenosine into HeLa cells (ATCC catalog # CCL-2) using a PMT-based radiometric detection instrument. […] The amount of radiolabel accumulation was then determined using a Perkin Elmer Topcount NXT microplate reader. […]
readout: IC50
Form entry: enter the amount, then its unit.

For C[C@](O)(c1ccc(-c2nc([C@@H]3CC[C@H]4CCC(=O)N4C3)n3c(Cl)cnc(N)c23)cc1)c1cccc(CC(F)(F)F)c1 [Example 122] the compound record lists IC50 as 966 nM

// CC(F)(F)c1cccc([C@](C)(O)c2ccc(-c3nc([C@@H]4CC[C@H]5CCC(=O)N5C4)n4ccnc(N)c34)cc2)c1 [Example 132] : IC50 value = 2950 nM

IC50 reading for C[C@@](O)(c1ccc(-c2nc([C@@H]3CC[C@H]4CCC(=O)N4C3)n3ccnc(N)c23)cc1)c1cccc(CC(F)(F)F)c1 [Example 78] : 2850 nM

Reported IC50 for Nc1nccn2c([C@@H]3CC[C@H]4CCC(=O)N4C3)nc(-c3ccc([C@](O)(c4ccccc4)C(F)(F)F)cc3)c12 [Example 25] was 3830 nM

IC50 for C[C@](O)(c1cccc(C(F)(F)F)c1)c1ccc(-c2nc([C@@H]3CC[C@H]4CCC(=O)N4C3)n3ccnc(N)c23)c(F)c1 [Example 101] is 371 nM

For this compound ( CC(O)(c1ccc(-c2nc([C@@H]3CC[C@H]4CCC(=O)N4C3)n3ccnc(N)c23)cc1)c1ccc(C(F)(F)F)cc1 (stereo partly shown) [Example 15] ), measured IC50 is 1780 nM

Quick note, IC50 for C[C@@](O)(c1ccccc1)c1ccc(-c2nc([C@@H]3CC[C@H]4CCC(=O)N4C3)n3ccnc(N)c23)cc1 [Example 2] landed at 6350 nM

So, Cc1cccc([C@@](C)(O)c2ccc(-c3nc([C@@H]4CC[C@H]5CCC(=O)N5C4)n4ccnc(N)c34)cc2)c1 [Example 53] ? Its IC50 was 671 nM

Quick note, IC50 for COc1ccccc1[C@@](C)(O)c1ccc(-c2nc([C@@H]3CC[C@H]4CCC(=O)N4C3)n3ccnc(N)c23)cc1 [Example 49] landed at 2950 nM

Lab note: measured IC50 of CCOc1cc([C@@](C)(O)c2cccc(C(F)(F)F)c2)ccc1-c1nc([C@@H]2CC[C@@H]3N(C2)C(=O)CC3(C)C)n2ccnc(N)c12 [Example 186] was 3080 nM

For C[C@](O)(c1ccc(-c2nc([C@@H]3CC[C@H]4CCC(=O)N4C3)n3ccnc(N)c23)cc1)c1cccc(OC(F)(F)F)c1 [Example 56] the compound record lists IC50 as 901 nM

IC50 recorded for this compound, Nc1nccn2c([C@@H]3CC[C@H]4CCC(=O)N4C3)nc(-c3ccc([C@@](O)(c4ccccc4)C(F)(F)F)cc3)c12 [Example 26] , is 2610 nM

The compound listed as Cc1ccccc1[C@](C)(O)c1ccc(-c2nc([C@@H]3CC[C@H]4CCC(=O)N4C3)n3ccnc(N)c23)cc1 [Example 48] has a reported IC50 of 3300 nM
